B1: Ribonuclease, P00648 (parent)
chain: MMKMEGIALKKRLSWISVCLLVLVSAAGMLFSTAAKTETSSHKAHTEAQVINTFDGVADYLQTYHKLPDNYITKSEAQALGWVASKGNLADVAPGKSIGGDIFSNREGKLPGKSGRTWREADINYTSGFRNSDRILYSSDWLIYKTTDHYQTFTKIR

Variants of: B1
Settings: Bacillus amyloliquefaciens; pH 6.3; 25 °C; Urea; Fluorescence; MES 50 micro M; reversible: yes; structure 1BNI; whole UniProt chain shown

>  <variant>
I102V

>  <unit.of.measurement>
kcal/mol

>  <ddG of mutation (higher = less stable)>
0.3

$$$$
>  <variant>
Y60A

>  <unit.of.measurement>
kcal/mol

>  <ddG of mutation (higher = less stable)>
3.71

$$$$
>  <variant>
T73G

>  <unit.of.measurement>
kcal/mol

>  <ddG of mutation (higher = less stable)>
1.42

$$$$
>  <variant>
I123V

>  <unit.of.measurement>
kcal/mol

>  <ddG of mutation (higher = less stable)>
0.82

$$$$
>  <variant>
V92A

>  <unit.of.measurement>
kcal/mol

>  <ddG of mutation (higher = less stable)>
1.72

$$$$
>  <variant>
Y60A Y64A

>  <unit.of.measurement>
kcal/mol

>  <ddG of mutation (higher = less stable)>
5

$$$$
>  <variant>
S139A

>  <unit.of.measurement>
kcal/mol

>  <ddG of mutation (higher = less stable)>
2.8

$$$$
>  <variant>
T53A

>  <unit.of.measurement>
kcal/mol

>  <ddG of mutation (higher = less stable)>
2.15

$$$$
>  <variant>
H65Q

>  <unit.of.measurement>
kcal/mol

>  <ddG of mutation (higher = less stable)>
1.44

$$$$
>  <variant>
T53G

>  <unit.of.measurement>
kcal/mol

>  <ddG of mutation (higher = less stable)>
1.21

$$$$
>  <variant>
N52A

>  <unit.of.measurement>
kcal/mol

>  <ddG of mutation (higher = less stable)>
1.85

$$$$
